# Experimental System: His6-AspH315–758 (human aspartate/asparagine-β-hydroxylase, AspH) (Homo sapiens, UniProt Q12797)
# Construct: N-Terminally His6-tagged human AspH315–758 (His6-AspH315–758) was produced in E. coli BL21 (DE3) cells; made in house; host or cells: E. coli BL21 (DE3), pET-28a(+) vector
# Sequence (Q12797 315-758): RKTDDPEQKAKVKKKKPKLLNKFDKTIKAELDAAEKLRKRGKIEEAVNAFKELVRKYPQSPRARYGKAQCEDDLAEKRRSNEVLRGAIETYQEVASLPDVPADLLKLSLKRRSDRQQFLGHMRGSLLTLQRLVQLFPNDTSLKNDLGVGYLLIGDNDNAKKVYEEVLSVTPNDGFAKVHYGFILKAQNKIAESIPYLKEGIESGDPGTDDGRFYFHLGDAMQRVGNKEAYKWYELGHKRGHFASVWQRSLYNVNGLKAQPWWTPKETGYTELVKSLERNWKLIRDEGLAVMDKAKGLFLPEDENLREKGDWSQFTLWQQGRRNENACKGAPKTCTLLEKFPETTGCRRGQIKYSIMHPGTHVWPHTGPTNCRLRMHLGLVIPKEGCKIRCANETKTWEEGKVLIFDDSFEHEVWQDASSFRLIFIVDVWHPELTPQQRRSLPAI
# Procedure Details: SPE-MS AspH inhibition assay (LOPAC screen at fixed 20 μM and IC50 dose-response), hydroxylation of cyclic peptide hFX-CP101–119
# Type: biochemical
# Experimental Context: LOPAC Plate 4, compound at 20 uM; read-out: % inhibition
Where a name gives a salt, the structure may show the parent alone.
Measured Parameter: inhibition at 20 µM (%)
All answers are understood in %, so give the number only.

Molecule | Measured Number
CC1=C(CC(=O)O)c2cc(F)ccc2/C1=C\c1ccc([S+](C)[O-])cc1 (stereo not shown) | 2.67

Now look at this entry.
IN: Can you share its inhibition at 20 µM? I mean this molecule: Cc1scc2c1N(C(=O)CN1CCN(C)CC1)c1ccccc1NC2=O [Telenzepine dihydrochloride]
OUT: -5.75
